Just for reference, ChEMBL document CHEMBL1158478 is where these values come from.

- study-target: UniProtKB O64411
- Sequence (O64411 whole entry): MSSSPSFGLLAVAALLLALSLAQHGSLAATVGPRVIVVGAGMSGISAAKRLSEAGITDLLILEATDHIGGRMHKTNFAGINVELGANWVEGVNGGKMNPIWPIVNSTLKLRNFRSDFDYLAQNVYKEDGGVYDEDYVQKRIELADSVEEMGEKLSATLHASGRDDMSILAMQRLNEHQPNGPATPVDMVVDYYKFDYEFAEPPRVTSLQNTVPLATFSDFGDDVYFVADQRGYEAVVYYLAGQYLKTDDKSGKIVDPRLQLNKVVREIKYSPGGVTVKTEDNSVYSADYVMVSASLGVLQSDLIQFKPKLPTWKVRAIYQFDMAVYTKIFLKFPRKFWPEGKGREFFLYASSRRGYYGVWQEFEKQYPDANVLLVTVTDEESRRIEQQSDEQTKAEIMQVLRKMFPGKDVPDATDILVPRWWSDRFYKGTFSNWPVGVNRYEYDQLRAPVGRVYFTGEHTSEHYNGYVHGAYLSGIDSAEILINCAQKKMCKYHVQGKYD
pKi: −log10 of the molar value.
observation-type: pKi

a. NCCCCCN=C(N)NCC1CC1
b. NCCCCN=C(N)Nc1ccc(F)cc1
c. CC(C)=CCNC(=N)NCCCNCCCN
d. C#CCNC(N)=NCCCCCCCCNCCCCCCCCN=C(N)N
e. C=CCNC(=N)NCCCCN
Put the listed items above in order, lowest pKi first. Returns: the labels arranged in the requested order.
a, c, b, e, d
